Examples of compounds with documented TGI follow.
# Test system: A498 renal
# Experiment Description: NCI tumour cell line growth inhibition, 48 h

Compound: COC(=O)C(C(=O)C(=O)Nc1ccc([N+](=O)[O-])cc1[N+](=O)[O-])c1nc2ccc(Cl)cc2[nH]c1=O (centres undefined)
Tested System: A498 renal
Val: > 100 µM
//
Compound: O=C1C2=C(CC3=C(C2)CS(=O)(=O)C3)C(=O)C2=C1CC1=C(C2)CS(=O)(=O)C1
Tested System: A498 renal
Val: > 90.9 µM
//
Compound: COc1ccc(CCCNC(=O)c2cc(OC)c(OC)cc2CCO)cc1OC
Tested System: A498 renal
Val: > 100 µM
//
Compound: CC(C)=CCC[C@](C)(O)[C@H]1CC[C@]2(C)[C@@H]1CC[C@@H]1[C@@]3(C)CC/C(=N/O)C(C)(C)[C@@H]3CC[C@]12C
Tested System: A498 renal
Val: > 100 µM
//
Compound: COc1cc(N(C)C)c(OC)cc1/C=C\c1ccnc2ccccc12
Tested System: A498 renal
Val: 9.92 µM
//
Compound: COc1cc(NCCCN=C(N)NC(N)=NC(C)C)c2ncccc2c1
Tested System: A498 renal
Val: > 88.8 µM
//
Compound: CC(=O)Nc1ccc2c3c(cc(O)c2c1)N(C(=O)CCCCCCC(=O)N1CC(CCl)c2c1cc(O)c1cc(NC(C)=O)ccc21)CC3CCl (centres undefined)
Tested System: A498 renal
Val: < 0.01 µM
//
Compound: O=C1C(=O)N(c2cccc(C(F)(F)F)c2)C(=S)N1c1ccccc1
Tested System: A498 renal
Val: 59.5 µM

Now consider the entry below.
In plain terms, `CC(C)N=C(N)NC#N` has a documented TGI of > 100 µM
